target-under-test: T1, Strep tagged recombinant human PD-1 (human, UniProt Q15116 25-170, limits assumed)
T1 construct: the whole entry is named; also called strep tagged human PD-1; not shown: Strep tag
T1 sequence (Q15116 25-170 limits assumed): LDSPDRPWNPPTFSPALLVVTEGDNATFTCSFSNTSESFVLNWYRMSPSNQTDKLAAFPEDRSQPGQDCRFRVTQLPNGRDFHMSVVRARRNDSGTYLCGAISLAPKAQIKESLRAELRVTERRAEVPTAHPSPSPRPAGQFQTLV
test-protocol: SPR Biacore T200, strep-tagged PD-1 amine-coupled, single cycle kinetics
measured-quantity: kon (M⁻¹ s⁻¹)
Please give a number only; it is taken to be in M⁻¹ s⁻¹.

Record excerpt, results attached:
>>> reported_measurement("Humabody® 1.96 (VHH, human VH single domain antibody) VHH: EVQLVESGGGLVKPGGSLRLSCAASGFTFSDTSMTWMRQAPGKGLEWVSYISSGGGVKFYADSVKGRFTISRDNAKNSLYLQMNSLRAEDTAVYYCAREAPLRLGESPHDAFDISGQGTMVTVSS")
"1.52e+06"
>>> reported_measurement("Humabody® 1.84 (VHH, human VH single domain antibody) VHH: EVQLVESGGGLVKPGGSLRLSCAASGFTFSDESMTWMRQAPGKGLEWVSYISSGGGVKFYTDSVKGRFTISRDNAKNSLYLQMNSLRAEDTAVYYCAREAPLRLGESPHDAFDISGQGTMVTVSS")
830000
>>> reported_measurement("1.57-6GS-1.57 (other, bivalent construct of two VH domains in one chain) QVQLVESGGGLVKPGGSLRLSCAASGFTFSDNSMTWMRQAPGKGLEWVSYISSGGGVIFYADSVKGRFTISRDNAKNSLYLQMNSLRADDTAVYYCAREAPLRLGESPHDAFDISGQGTMVTVSSGGGGSGGGGSGGGGSGGGGSGGGGSGGGGSQVQLVESGGGLVKPGGSLRLSCAASGFTFSDNSMTWMRQAPGKGLEWVSYISSGGGVIFYADSVKGRFTISRDNAKNSLYLQMNSLRADDTAVYYCAREAPLRLGESPHDAFDISGQGTMVTVSS")
773000
>>> reported_measurement("Humabody® 1.105 (VHH, human VH single domain antibody) VHH: EVQLVESGGGLVKPGGSLRLSCAASGFTFSDESLTWMRQAPGKGLEWVSYISSGGGVKFYTDSVKGRFTISRDNAKNSLYLQMNSLRAEDTAVYYCAREAPLRLGESPHDAFDISGQGTMVTVSS")
950000
>>> reported_measurement("1.57-4GS-1.57 (other, bivalent construct of two VH domains in one chain) QVQLVESGGGLVKPGGSLRLSCAASGFTFSDNSMTWMRQAPGKGLEWVSYISSGGGVIFYADSVKGRFTISRDNAKNSLYLQMNSLRADDTAVYYCAREAPLRLGESPHDAFDISGQGTMVTVSSGGGGSGGGGSGGGGSGGGGSQVQLVESGGGLVKPGGSLRLSCAASGFTFSDNSMTWMRQAPGKGLEWVSYISSGGGVIFYADSVKGRFTISRDNAKNSLYLQMNSLRADDTAVYYCAREAPLRLGESPHDAFDISGQGTMVTVSS")
888000

query: # lookup: kon of 1.77-4GS-non-blocking VH (3) (bispecific antibody) EVQLVESGGGLVKPGGSLRLSCAASGFTFSDSSMTWMRQAPGKGLEWVSYISSGGGVKFYTDSVKGRFTISRDNAKNSLYLQMNSLRAEDTAVYYCAREAPLRLGESPHDAFDISGQGTMVTVSSGGGGSGGGGSGGGGSGGGGSEVQLVESGGGLVQPGRSLRLSCAASGFTFDDYAMHWVRQAPGKDLEWVSGISWNGGSMGYAASVKGRFTISRDNAKNSLYLQMNSLRAEDTALYYCVREKGPGLTGSTADYYGLDVWGQGTMVTVSS
result: 550000

query: Now the same for Humabody® 1.89 (VHH, human VH single domain antibody) VHH: EVQLVESGGGLVKPGGSLRLSCAASGFTFSDYSMTWMRQAPGKGLEWVSYISSGGGVKFYADSVKGRFTISRDNAKNSLYLQMNSLRAEDTAVYYCAREAPLRLGESPHDAFDISGQGTMVTVSS
result: 1.6e+06
